# systemUnderTest: CXCR4 (Homo sapiens, UniProt P61073)
# Sequence (P61073 whole entry): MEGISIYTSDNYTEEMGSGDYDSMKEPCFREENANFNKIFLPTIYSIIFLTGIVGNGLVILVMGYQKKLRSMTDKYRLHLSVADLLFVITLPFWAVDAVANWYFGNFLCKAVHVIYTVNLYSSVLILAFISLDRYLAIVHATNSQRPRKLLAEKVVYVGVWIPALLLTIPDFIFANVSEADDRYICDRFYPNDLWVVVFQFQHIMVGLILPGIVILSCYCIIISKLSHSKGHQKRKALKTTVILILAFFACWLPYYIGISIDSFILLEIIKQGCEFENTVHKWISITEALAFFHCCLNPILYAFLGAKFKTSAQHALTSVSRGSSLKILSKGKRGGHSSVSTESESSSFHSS
# runDescription: Chemokine (CXCL12-AF647) binding inhibition assay, Jurkat cells expressing CXCR4
# conditionsUsed: CXCL12-AF647 25 ng/ml, read-out: IC50 CXCL-12 binding Jurkat
# Experimental: Jurkat cells expressing CXCR4 were washed once with assay buffer (Hanks' balanced salt solution with 20 mM HEPES buffer and 0.2% bovine serum albumin, pH 7.4) and then incubated for 15 min at room temperature with the test compounds diluted in assay buffer at dose-dependent concentrations. Subsequently, CXCL12-AF647 (25 ng/ml) was added to the compound-incubated cells. The cells were incubated for 30 min at room temperature. […]
pIC50: −log10 of the molar value.
Give pIC50 for every item shown.

The compound identified as Cc1cc(-c2ccnc(Nc3cnn(CCN4[C@@H](c5ncccc5C)CCC[C@H]4c4ncccc4C)c3)n2)ccc1CNC(=O)N1CC(OC(C)(C)C)C1 [Compound I-42] registered its pIC50 at 7.00 to 9.00

The compound identified as Cc1cccnc1[C@H]1CCC[C@@H](c2ncccc2C)N1CCCCNC[C@@H]1CC[C@@H](Nc2ncnc3[nH]cc(C(=O)c4ccc(Oc5ccccc5)cc4Cl)c23)CO1 [Compound I-13] registered its pIC50 at 6.00 to 7.00

The compound identified as Cc1cc(-c2ncnc3[nH]c(C(=O)NCCCN4[C@@H](c5ncccc5C)CCC[C@H]4c4ncccc4C)cc23)ccc1CNC(=O)c1ccc(C(C)C)cc1 [Compound I-38] registered its pIC50 at 7.00 to 9.00

The compound identified as Cc1cc(-c2ccnc(Nc3cnn(CCN4[C@@H](c5ncccc5C)CCC[C@H]4c4ncccc4C)c3)n2)ccc1CNC(=O)N1CC(OC(C)C)C1 [Compound I-11] registered its pIC50 at 7.00 to 9.00

====

Give IC50 for every item shown.
# systemUnderTest: BTK (Homo sapiens)
# Sequence (Q06187 whole entry): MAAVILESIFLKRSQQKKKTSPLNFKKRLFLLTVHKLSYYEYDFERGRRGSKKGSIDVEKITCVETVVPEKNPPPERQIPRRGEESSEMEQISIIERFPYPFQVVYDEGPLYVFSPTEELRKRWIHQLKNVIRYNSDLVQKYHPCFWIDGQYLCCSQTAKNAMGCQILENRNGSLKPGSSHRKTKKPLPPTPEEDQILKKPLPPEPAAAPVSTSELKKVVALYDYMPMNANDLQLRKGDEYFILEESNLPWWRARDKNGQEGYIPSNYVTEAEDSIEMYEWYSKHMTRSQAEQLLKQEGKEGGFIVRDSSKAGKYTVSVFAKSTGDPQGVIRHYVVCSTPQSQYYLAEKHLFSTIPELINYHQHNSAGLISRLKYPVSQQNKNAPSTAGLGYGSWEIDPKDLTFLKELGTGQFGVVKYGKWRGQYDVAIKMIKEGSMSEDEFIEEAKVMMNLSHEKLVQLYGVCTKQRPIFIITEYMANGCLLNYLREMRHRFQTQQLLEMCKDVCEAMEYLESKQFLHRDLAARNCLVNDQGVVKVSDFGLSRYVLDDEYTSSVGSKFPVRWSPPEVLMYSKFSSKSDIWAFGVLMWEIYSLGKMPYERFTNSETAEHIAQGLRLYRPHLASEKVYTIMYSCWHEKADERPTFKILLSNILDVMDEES
# runDescription: BTK Kinase Enzyme System with ADP-Glo Kinase Assay
# conditionsUsed: 50 μM ATP
# Protocol: Inhibition of BTK activity was evaluated using the BTK Kinase Enzyme System in combination with the ADP-Glo™ Kinase Assay Kit (V9071, Promega), according to manufacturer's instructions. Luminescence was detected on a PerkinElmer EnVision Multimode Plate Reader. […] Assay performance was evaluated according to the reference compound Staurosporine, which was within 3-5 fold of published results and between different tests, with a Z′ value larger than 0.5, where applicable.

The compound identified as Cc1cccnc1[C@H]1CCC[C@@H](c2ncccc2C)N1CCNC(=O)[C@@H]1CC[C@@H](Nc2ncnc3[nH]cc(C(=O)c4ccc(Oc5ccccc5)cc4Cl)c23)CO1 [Compound I-17] registered its IC50 at 1 to 100 nM

The compound identified as Cc1cc(-c2ccnc(Nc3cnn(CCN4[C@@H](c5ncccc5C)CCC[C@H]4c4ncccc4C)c3)n2)ccc1CNC(=O)N1CC(OC(C)C)C1 [Compound I-11] registered its IC50 at 1 to 100 nM

The compound identified as Cc1cccnc1[C@H]1CCC[C@@H](c2ncccc2C)N1CCCCNC[C@@H]1CC[C@@H](Nc2ncnc3[nH]cc(C(=O)c4ccc(Oc5ccccc5)cc4Cl)c23)CO1 [Compound I-13] registered its IC50 at 100 to 1000 nM

The compound identified as Cc1cc(-c2ncnc3[nH]c(C(=O)NCCCN4[C@@H](c5ncccc5C)CCC[C@H]4c4ncccc4C)cc23)ccc1CNC(=O)c1ccc(C(C)(C)C)cc1 [Compound I-4] registered its IC50 at 1 to 100 nM

The compound identified as Cc1cc(-c2ncnc3[nH]c(C(=O)NCCN4[C@@H](c5ncccc5C)CCC[C@H]4c4ncccc4C)cc23)ccc1CNC(=O)c1ccc(C(C)(C)C)cc1 [Compound I-3] registered its IC50 at 1 to 100 nM

====

# systemUnderTest: SRMS (Homo sapiens)
# Construct: purchased Reaction Biology Europe GmbH
# Sequence (Q9H3Y6 whole entry): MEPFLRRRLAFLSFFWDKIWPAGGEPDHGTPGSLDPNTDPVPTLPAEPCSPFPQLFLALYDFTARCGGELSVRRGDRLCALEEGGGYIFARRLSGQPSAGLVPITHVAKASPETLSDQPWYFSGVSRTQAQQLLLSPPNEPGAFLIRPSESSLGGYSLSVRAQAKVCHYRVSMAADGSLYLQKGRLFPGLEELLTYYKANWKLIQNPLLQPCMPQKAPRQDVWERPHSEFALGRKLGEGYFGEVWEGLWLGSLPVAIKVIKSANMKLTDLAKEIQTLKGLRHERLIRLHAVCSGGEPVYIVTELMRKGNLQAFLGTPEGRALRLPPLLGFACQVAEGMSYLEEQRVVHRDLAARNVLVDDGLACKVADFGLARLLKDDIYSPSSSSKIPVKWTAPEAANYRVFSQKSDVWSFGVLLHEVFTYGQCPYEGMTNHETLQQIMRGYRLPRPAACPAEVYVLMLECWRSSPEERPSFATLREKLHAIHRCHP
# runDescription: PanQinase kinase panel: SRMS
# Type: biochemical
# conditionsUsed: read-out: INHIBITORY EFFECT @ 1 uM: SRMS
observedProperty: inhibition at 1 µM

Summary line: COc1ccc(F)cc1C(=O)NCc1ccc(-c2nn([C@@H](C)C(F)(F)F)c(N)c2C(N)=O)cc1 [LOXO-305, pirtobrutinib] , SRMS (Homo sapiens), reported inhibition at 1 µM = < 50%

Summary line: O=C(c1ccc(Oc2ccccc2)cc1Cl)c1c[nH]c2ncnc(N[C@@H]3CC[C@@H](CO)OC3)c12 [ARQ-531] , SRMS (Homo sapiens), reported inhibition at 1 µM = 90 to 100%

Summary line: Cc1cccnc1[C@H]1CCC[C@@H](c2ncccc2C)N1CCN1CCN(C(=O)c2ccc(-c3cc4c(-c5cccc(NC(=O)c6ccccc6)c5C)ncnc4[nH]3)cc2)CC1 [Compound I-10] , SRMS (Homo sapiens), reported inhibition at 1 µM = < 50%

Summary line: C=CC(=O)N1CCC([C@@H]2CCNc3c(C(N)=O)c(-c4ccc(Oc5ccccc5)cc4)nn32)CC1 [Zanubrutinib] , SRMS (Homo sapiens), reported inhibition at 1 µM = < 50%

====

# systemUnderTest: ACK1 (Homo sapiens, UniProt Q07912)
# Construct: purchased Reaction Biology Europe GmbH
# Sequence (Q07912 whole entry): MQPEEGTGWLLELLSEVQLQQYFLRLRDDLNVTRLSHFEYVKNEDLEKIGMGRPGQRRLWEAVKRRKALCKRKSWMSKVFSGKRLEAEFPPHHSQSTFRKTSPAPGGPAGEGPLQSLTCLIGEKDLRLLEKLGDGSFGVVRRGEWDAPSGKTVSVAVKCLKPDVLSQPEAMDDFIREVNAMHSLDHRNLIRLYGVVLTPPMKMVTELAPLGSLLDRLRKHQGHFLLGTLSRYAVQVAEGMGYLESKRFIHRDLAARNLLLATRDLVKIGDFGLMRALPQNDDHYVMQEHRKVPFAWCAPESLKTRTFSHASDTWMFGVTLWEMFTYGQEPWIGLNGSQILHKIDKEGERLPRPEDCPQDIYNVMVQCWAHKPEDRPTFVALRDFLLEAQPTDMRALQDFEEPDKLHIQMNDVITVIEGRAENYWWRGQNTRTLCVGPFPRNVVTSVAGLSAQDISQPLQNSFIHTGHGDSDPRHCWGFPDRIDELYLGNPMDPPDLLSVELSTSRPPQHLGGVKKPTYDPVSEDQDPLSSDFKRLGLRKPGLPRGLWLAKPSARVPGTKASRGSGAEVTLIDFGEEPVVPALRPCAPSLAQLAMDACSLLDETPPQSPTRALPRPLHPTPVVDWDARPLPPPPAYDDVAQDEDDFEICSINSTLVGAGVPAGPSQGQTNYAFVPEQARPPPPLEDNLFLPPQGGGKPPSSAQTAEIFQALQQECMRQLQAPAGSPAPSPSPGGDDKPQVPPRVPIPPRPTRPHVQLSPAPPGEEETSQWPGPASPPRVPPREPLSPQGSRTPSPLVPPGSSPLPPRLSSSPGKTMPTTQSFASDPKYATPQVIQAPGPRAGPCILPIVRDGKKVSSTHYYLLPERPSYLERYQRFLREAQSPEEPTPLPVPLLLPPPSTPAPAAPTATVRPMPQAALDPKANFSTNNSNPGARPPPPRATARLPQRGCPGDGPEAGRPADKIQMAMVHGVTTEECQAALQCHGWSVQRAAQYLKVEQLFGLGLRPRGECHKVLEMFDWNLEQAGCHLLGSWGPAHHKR
# runDescription: PanQinase kinase panel: ACK1
# Assay type: biochemical
# conditionsUsed: read-out: INHIBITORY EFFECT @ 1 uM: ACK1
Give inhibition at 1 µM for every item shown.

The compound identified as "C=CC(=O)N1CCC([C@@H]2CCNc3c(C(N)=O)c(-c4ccc(Oc5ccccc5)cc4)nn32)CC1" registered its inhibition at 1 µM at < 50%

The compound identified as "O=C(c1ccc(Oc2ccccc2)cc1Cl)c1c[nH]c2ncnc(N[C@@H]3CC[C@@H](CO)OC3)c12" registered its inhibition at 1 µM at 90 to 100%

The compound identified as "Cc1cccnc1[C@H]1CCC[C@@H](c2ncccc2C)N1CCN1CCN(C(=O)c2ccc(-c3cc4c(-c5cccc(NC(=O)c6ccccc6)c5C)ncnc4[nH]3)cc2)CC1" registered its inhibition at 1 µM at 90 to 100%

The compound identified as "COc1ccc(F)cc1C(=O)NCc1ccc(-c2nn([C@@H](C)C(F)(F)F)c(N)c2C(N)=O)cc1" registered its inhibition at 1 µM at < 50%

====

Give inhibition at 1 µM for every item shown.
# systemUnderTest: FGFR3 (Homo sapiens, UniProt P22607)
# Construct: purchased Reaction Biology Europe GmbH
# Sequence (P22607 23-806): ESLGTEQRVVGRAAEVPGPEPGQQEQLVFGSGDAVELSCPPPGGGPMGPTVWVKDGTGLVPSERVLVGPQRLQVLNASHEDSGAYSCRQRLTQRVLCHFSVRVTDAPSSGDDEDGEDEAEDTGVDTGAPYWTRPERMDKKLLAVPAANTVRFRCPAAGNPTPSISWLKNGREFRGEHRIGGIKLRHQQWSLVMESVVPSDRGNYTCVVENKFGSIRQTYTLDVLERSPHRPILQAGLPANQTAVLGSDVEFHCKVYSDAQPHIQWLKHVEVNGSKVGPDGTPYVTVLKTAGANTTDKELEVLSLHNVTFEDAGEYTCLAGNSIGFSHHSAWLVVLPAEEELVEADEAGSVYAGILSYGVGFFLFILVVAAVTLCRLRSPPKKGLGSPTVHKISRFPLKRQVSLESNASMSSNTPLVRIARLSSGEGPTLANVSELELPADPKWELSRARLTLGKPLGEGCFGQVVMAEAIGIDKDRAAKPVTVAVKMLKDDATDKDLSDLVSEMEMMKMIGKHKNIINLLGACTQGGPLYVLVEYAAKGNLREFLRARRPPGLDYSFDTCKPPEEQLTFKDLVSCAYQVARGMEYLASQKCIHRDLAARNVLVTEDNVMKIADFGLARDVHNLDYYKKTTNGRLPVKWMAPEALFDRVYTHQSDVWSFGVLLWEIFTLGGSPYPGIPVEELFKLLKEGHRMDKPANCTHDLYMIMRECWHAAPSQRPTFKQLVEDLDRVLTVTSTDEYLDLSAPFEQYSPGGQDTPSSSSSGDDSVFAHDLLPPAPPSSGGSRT
# runDescription: PanQinase kinase panel: FGFR3
# Type: biochemical
# conditionsUsed: read-out: INHIBITORY EFFECT @ 1 uM: FGFR3

Summary line: "C=CC(=O)N1CCC([C@@H]2CCNc3c(C(N)=O)c(-c4ccc(Oc5ccccc5)cc4)nn32)CC1" , FGFR3 (Homo sapiens, UniProt P22607), reported inhibition at 1 µM = < 50%

Summary line: "O=C(c1ccc(Oc2ccccc2)cc1Cl)c1c[nH]c2ncnc(N[C@@H]3CC[C@@H](CO)OC3)c12" , FGFR3 (Homo sapiens, UniProt P22607), reported inhibition at 1 µM = 50 to 69%

Summary line: "COc1ccc(F)cc1C(=O)NCc1ccc(-c2nn([C@@H](C)C(F)(F)F)c(N)c2C(N)=O)cc1" , FGFR3 (Homo sapiens, UniProt P22607), reported inhibition at 1 µM = < 50%

Summary line: "Cc1cccnc1[C@H]1CCC[C@@H](c2ncccc2C)N1CCN1CCN(C(=O)c2ccc(-c3cc4c(-c5cccc(NC(=O)c6ccccc6)c5C)ncnc4[nH]3)cc2)CC1" , FGFR3 (Homo sapiens, UniProt P22607), reported inhibition at 1 µM = < 50%

====

Give IC50 for every item shown.
# systemUnderTest: UniProt P61073
# runDescription: Intracellular CXCL-12-induced calcium mobilization assay (FLIPR), U87.CXCR4 cells
# Assay type: cell-based
# Design: expressed in transfected cells; host or cells: U87 (U87.CXCR4)
# conditionsUsed: CXCL-12 25-50 ng/ml, read-out: IC50 CXCL-12 Ca2+ flux U87.CXCR4+

The compound identified as "Cc1cc(-c2ncnc3[nH]c(C(=O)NCCCCN4[C@@H](c5ncccc5C)CCC[C@H]4c4ncccc4C)cc23)ccc1CNC(=O)c1ccc(C(C)(C)C)cc1" registered its IC50 at > 2.5 µM

The compound identified as "Cc1cc(-c2ncnc3[nH]c(C(=O)NCCCCN4[C@@H](c5ncccc5C)CCC[C@H]4c4ncccc4C)cc23)ccc1CNC(=O)c1cccc(C(C)C)c1" registered its IC50 at 1 to 2.5 µM

The compound identified as "Cc1cc(-c2ncnc3[nH]c(C(=O)N(C)CCCN4[C@@H](c5ncccc5C)CCC[C@H]4c4ncccc4C)cc23)ccc1CNC(=O)c1ccc(C(C)(C)C)cc1" registered its IC50 at > 2.5 µM

The compound identified as "Cc1cccnc1[C@H]1CCC[C@@H](c2ncccc2C)N1CCNC1CN(C(=O)c2ccc(-c3cc4c(-c5cccc(NC(=O)c6ccc(C(F)(F)F)cc6)c5C)ncnc4[nH]3)cc2)C1" registered its IC50 at 0.001 to 0.1 µM

The compound identified as "Cc1cc(-c2ncnc3[nH]c(C(=O)NCCN4[C@@H](c5ncccc5C)CCC[C@H]4c4ncccc4C)cc23)ccc1CNC(=O)c1ccc(C(C)(C)C)cc1" registered its IC50 at > 2.5 µM

The compound identified as "Cc1cc(-c2ncnc3[nH]c(C(=O)NCCCN4[C@@H](c5ncccc5C)CCC[C@H]4c4ncccc4C)cc23)ccc1CNC(=O)c1cccc(C(C)C)c1" registered its IC50 at > 2.5 µM

The compound identified as Cc1cccnc1[C@H]1CC(COC(=O)[C@@H]2CC[C@@H](Nc3ncnc4[nH]cc(C(=O)c5ccc(Oc6ccccc6)cc5Cl)c34)CO2)C[C@@H](c2ncccc2C)N1CCCCN (stereo partly drawn) registered its IC50 at 0.1 to 1 µM

The compound identified as "Cc1cc(-c2ncnc3[nH]c(S(=O)(=O)NCCCCN4[C@@H](c5ncccc5C)CCC[C@H]4c4ncccc4C)cc23)ccc1CNC(=O)c1ccc(C(C)(C)C)cc1" registered its IC50 at > 2.5 µM

The compound identified as "Cc1cc(-c2ccnc(Nc3cnn(CCN4[C@@H](c5ncccc5C)CCC[C@H]4c4ncccc4C)c3)n2)ccc1CNC(=O)N1CC(OC(C)C)C1" registered its IC50 at 0.1 to 1 µM

The compound identified as "Cc1cc(-c2ccnc(Nc3cnn(CCN4[C@@H](c5ncccc5C)CCC[C@H]4c4ncccc4C)c3)n2)ccc1CNC(=O)N1CC(OC(C)(C)C)C1" registered its IC50 at 0.1 to 1 µM

The compound identified as "Cc1cccnc1[C@H]1CCC[C@@H](c2ncccc2C)N1CCN1CCN(C(=O)c2ccc(-c3cc4c(-c5cccc(NC(=O)c6ccc(C(F)(F)F)cc6)c5C)ncnc4[nH]3)cc2)CC1" registered its IC50 at 0.1 to 1 µM

The compound identified as "Cc1cc(-c2ccnc(Nc3cnn(CCN4[C@@H](c5ncccc5C)CCC[C@H]4c4ncccc4C)c3)n2)ccc1CNC(=O)N1CC(OC(F)(F)F)C1" registered its IC50 at 0.1 to 1 µM

The compound identified as "Cc1cc(-c2ncnc3[nH]c(C(=O)NCCCCN4[C@@H](c5ncccc5C)CCC[C@H]4c4ncccc4C)cc23)ccc1CNC(=O)c1ccc(C(C)C)cc1" registered its IC50 at 0.1 to 1 µM

The compound identified as "Cc1cc(-c2ncnc3[nH]c(C(=O)NCCCN4[C@@H](c5ncccc5C)CCC[C@H]4c4ncccc4C)cc23)ccc1CNC(=O)c1ccc(C(C)(C)C)cc1" registered its IC50 at > 2.5 µM

The compound identified as "Cc1cccnc1[C@H]1CCC[C@@H](c2ncccc2C)N1CCNC1CN(C(=O)c2ccc(-c3cc4c(-c5cccc(NC(=O)c6ccccc6)c5C)ncnc4[nH]3)cc2)C1" registered its IC50 at 0.001 to 0.1 µM

The compound identified as "Cc1cc(-c2ncnc3[nH]c(C(=O)NCCCCN4[C@@H](c5ncccc5C)CCC[C@H]4c4ncccc4C)cc23)ccc1CNC(=O)c1ccc(C(F)(F)F)cc1" registered its IC50 at 0.1 to 1 µM

The compound identified as "Cc1cc(-c2ccnc(Nc3cnn(CCCCN4[C@@H](c5ncccc5C)CCC[C@H]4c4ncccc4C)c3)n2)ccc1CNC(=O)N1CC(OC(C)C)C1" registered its IC50 at > 2.5 µM

The compound identified as "Cc1cccnc1[C@H]1CCC[C@@H](c2ncccc2C)N1CCCCN(C)C(=O)c1cc2c(-c3ccc(CNC(=O)c4ccc(C(C)(C)C)cc4)cc3)ncnc2[nH]1" registered its IC50 at > 2.5 µM

The compound identified as "Cc1cccnc1[C@H]1CCC[C@@H](c2ncccc2C)N1CCNC(=O)[C@@H]1CC[C@@H](Nc2ncnc3[nH]cc(C(=O)c4ccc(Oc5ccccc5)cc4Cl)c23)CO1" registered its IC50 at > 2.5 µM

The compound identified as "Cc1cccnc1[C@H]1CCC[C@@H](c2ncccc2C)N1CCN1CCN(C(=O)c2ccc(-c3cc4c(-c5cccc(NC(=O)c6ccc(C(C)(C)C)cc6)c5C)ncnc4[nH]3)cc2)CC1" registered its IC50 at > 2.5 µM

The compound identified as "Cc1cccnc1[C@H]1CCC[C@@H](c2ncccc2C)N1CCCCNC(=O)OC[C@@H]1CC[C@@H](Nc2ncnc3[nH]cc(C(=O)c4ccc(Oc5ccccc5)cc4Cl)c23)CO1" registered its IC50 at > 2.5 µM
